Please go through the items and note down their pEC50.
molecular target: human somatostatin receptor subtype 2 (Homo sapiens, UniProt P30874); construct: expressed in transfected cells; experiment: Functional cAMP assay for SSTR2 agonists (HTRF) in CHO-K1 cells; format: cell-based; details: CHO-K1 cells stably expressing human SST2, 20 min; read-out: hSST2 cAMP Avg EC50
Sequence (P30874 whole entry): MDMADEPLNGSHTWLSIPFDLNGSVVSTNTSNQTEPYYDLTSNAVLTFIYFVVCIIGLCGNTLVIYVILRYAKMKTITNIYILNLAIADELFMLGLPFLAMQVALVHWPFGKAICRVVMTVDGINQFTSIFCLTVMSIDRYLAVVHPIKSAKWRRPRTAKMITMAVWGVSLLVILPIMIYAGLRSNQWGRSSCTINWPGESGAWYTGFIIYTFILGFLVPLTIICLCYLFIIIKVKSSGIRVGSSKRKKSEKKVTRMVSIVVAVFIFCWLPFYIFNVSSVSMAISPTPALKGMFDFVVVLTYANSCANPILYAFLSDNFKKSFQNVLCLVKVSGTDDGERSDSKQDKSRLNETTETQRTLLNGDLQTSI
Scale for pEC50: -log10 of concentration given in mol/L; no unit attached.

Return pEC50 for the following molecule: "CC[C@H](C)[C@@H]([C@@H](CC(=O)N1CCC[C@H]1[C@H](OC)[C@@H](C)C(=O)N[C@H](C)[C@@H](O)c1ccccc1)OC)N(C)C(=O)[C@@H](NC(=O)[C@H](C(C)C)N(C)C(=O)OCc1ccc(NC(=O)[C@H](CCCNC(N)=O)NC(=O)[C@@H](NC(=O)[C@H](CS(N)(=O)=O)NC(=O)CCOCCC(=O)NCCNc2ncc(-c3cc(C)cc(F)c3)c(N3CCC(N)CC3)c2-c2nc3ccc(Cl)cc3[nH]2)C(C)C)cc1C(=O)NCCN)C(C)C"
9.52

Return pEC50 for the following molecule: COc1cc2cc(c1Cl)N(C)C(=O)CC(OC(=O)[C@@H](C)N(C)C(=O)CCSSCCOCCOCCOCCOCCC(=O)NCCNc1ncc(-c3cc(C)cc(F)c3)c(N3CCC(N)CC3)c1-c1nc3ccc(Cl)cc3[nH]1)[C@]1(C)OC1[C@@H](C)C1C[C@@](O)(NC(=O)O1)[C@H](OC)/C=C/C=C(\C)C2 (stereo partly drawn)
9.39

Return pEC50 for the following molecule: COc1cc2cc(c1Cl)N(C)C(=O)CC(OC(=O)[C@@H](C)N(C)C(=O)CCS[C@H]1CC(=O)N(CC3CCC(C(=O)NCCCC[C@H](N)C(=O)NCCNc4ncc(-c5cc(C)cc(F)c5)c(N5CCC(N)CC5)c4-c4nc5ccc(Cl)cc5[nH]4)CC3)C1=O)[C@]1(C)OC1[C@@H](C)C1C[C@@](O)(NC(=O)O1)[C@H](OC)/C=C/C=C(\C)C2 (stereo partly drawn)
9.82

---

target: human somatostatin receptor subtype 2 (Homo sapiens, UniProt P30874); construct: expressed in transfected cells; assay: Functional cAMP assay for SSTR2 agonists (HTRF) in CHO-K1 cells; assay type: cell-based; conditions: CHO-K1 cells stably expressing human SST2, 20 min; read-out: hSST2 cAMP Avg EC50
Please go through the items and note down their pEC50.
Scale for pEC50: -log10 of concentration given in mol/L; no unit attached.

Param request: pEC50 | system human somatostatin receptor subtype 2 (Homo sapiens, UniProt P30874) | item "COCCOCCOCCOCCOCCC(=O)NCCNc1ncc(-c2cc(C)cc(F)c2)c(N2CCC(N)CC2)c1-c1nc2ccc(Cl)cc2[nH]1"
10.32

Param request: pEC50 | system human somatostatin receptor subtype 2 (Homo sapiens, UniProt P30874) | item "CC[C@H](C)[C@@H]([C@@H](CC(=O)N1CCC[C@H]1[C@H](OC)[C@@H](C)C(=O)N[C@H](C)[C@@H](O)c1ccccc1)OC)N(C)C(=O)[C@@H](NC(=O)[C@H](C(C)C)N(C)C(=O)OCc1ccc(NC(=O)[C@H](C)NC(=O)[C@@H](NC(=O)CCOCCC(=O)NCCNc2ncc(-c3cc(C)cc(F)c3)c(N3CCC(N)CC3)c2-c2nc3ccc(Cl)cc3[nH]2)C(C)C)cc1C(=O)NCCN)C(C)C"
9.44

Param request: pEC50 | system human somatostatin receptor subtype 2 (Homo sapiens, UniProt P30874) | item "CC[C@H](C)[C@@H]([C@@H](CC(=O)N1CCC[C@H]1[C@H](OC)[C@@H](C)C(=O)N[C@H](C)[C@@H](O)c1ccccc1)OC)N(C)C(=O)[C@@H](NC(=O)[C@H](C(C)C)N(C)C(=O)OCc1ccc(NC(=O)[C@H](CCCNC(N)=O)NC(=O)[C@@H](NC(=O)CCOCCOCCOCCC(=O)NCCNc2ncc(-c3cc(C)cc(F)c3)c(N3CCC(N)CC3)c2-c2nc3ccc(Cl)cc3[nH]2)C(C)C)c(O[C@@H]2O[C@H](C(=O)O)[C@@H](O)[C@H](O)[C@H]2O)c1)C(C)C"
9.80

---

test: H524 tumor biodistribution model: tumor and plasma levels of SMDC and MMAE by LC/MS-MS; assay type: in vivo, female Athymic nude mice; conditions: MMAE level 72 h after 500 nmol/kg IV of the conjugate, H524 tumor bearing nude mice
Please go through the items and note down their MMAE Tumor.
Give the value in nM but do not write nM after it.

Return MMAE Tumor for the following compound: "CC[C@H](C)[C@@H]([C@@H](CC(=O)N1CCC[C@H]1[C@H](OC)[C@@H](C)C(=O)N[C@H](C)[C@@H](O)c1ccccc1)OC)N(C)C(=O)[C@@H](NC(=O)[C@H](C(C)C)N(C)C(=O)OCc1ccc(NC(=O)[C@H](C)NC(=O)[C@@H](NC(=O)CCOCCC(=O)NCCNc2ncc(-c3cc(C)cc(F)c3)c(N3CCC(N)CC3)c2-c2nc3ccc(Cl)cc3[nH]2)C(C)C)c(O[C@@H]2O[C@H](C(=O)O)[C@@H](O)[C@H](O)[C@H]2O)c1)C(C)C"
231

Return MMAE Tumor for the following compound: "CC[C@H](C)[C@@H]([C@@H](CC(=O)N1CCC[C@H]1[C@H](OC)[C@@H](C)C(=O)N[C@H](C)[C@@H](O)c1ccccc1)OC)N(C)C(=O)[C@@H](NC(=O)[C@H](C(C)C)N(C)C(=O)OCc1ccc(NC(=O)[C@H](CCCNC(N)=O)NC(=O)[C@@H](NC(=O)[C@H](CCC(=O)O)NC(=O)CCOCCC(=O)NCCNc2ncc(-c3cc(C)cc(F)c3)c(N3CCC(N)CC3)c2-c2nc3ccc(Cl)cc3[nH]2)C(C)C)cc1C(=O)NCCN)C(C)C"
62.7

Return MMAE Tumor for the following compound: "CC[C@H](C)[C@@H]([C@@H](CC(=O)N1CCC[C@H]1[C@H](OC)[C@@H](C)C(=O)N[C@H](C)[C@@H](O)c1ccccc1)OC)N(C)C(=O)[C@@H](NC(=O)[C@H](C(C)C)N(C)C(=O)OCc1ccc(NC(=O)[C@H](CCCNC(N)=O)NC(=O)[C@@H](NC(=O)CCOCCC(=O)NCCNc2ncc(-c3cc(C)cc(F)c3)c(N3CCC(N)CC3)c2-c2nc3ccc(Cl)cc3[nH]2)C(C)C)c(O[C@@H]2O[C@H](C(=O)O)[C@@H](O)[C@H](O)[C@H]2O)c1)C(C)C"
267

Return MMAE Tumor for the following compound: "CC[C@H](C)[C@@H]([C@@H](CC(=O)N1CCC[C@H]1[C@H](OC)[C@@H](C)C(=O)N[C@H](C)[C@@H](O)c1ccccc1)OC)N(C)C(=O)[C@@H](NC(=O)[C@H](C(C)C)N(C)C(=O)OCc1ccc(NC(=O)[C@H](CCCNC(N)=O)NC(=O)[C@@H](NC(=O)[C@@H](CS(=O)(=O)O)NC(=O)CCOCCC(=O)NCCNc2ncc(-c3cc(C)cc(F)c3)c(N3CCC(N)CC3)c2-c2nc3ccc(Cl)cc3[nH]2)C(C)C)cc1C(=O)NCCN)C(C)C"
141

---

target: human somatostatin receptor subtype 2 (Homo sapiens); construct: expressed in transfected cells; experiment: Functional cAMP assay for SSTR2 agonists (HTRF) in CHO-K1 cells; assay type: cell-based; settings: CHO-K1 cells stably expressing human SST2, 20 min; read-out: hSST2 cAMP Avg EC50
Outcome measure: pEC50
Scale for pEC50: -log10 of concentration given in mol/L; no unit attached.

Return pEC50 for the following compound: "CC[C@H](C)[C@@H]([C@@H](CC(=O)N1CCC[C@H]1[C@H](OC)[C@@H](C)C(=O)N[C@H](C)[C@@H](O)c1ccccc1)OC)N(C)C(=O)[C@@H](NC(=O)[C@H](C(C)C)N(C)C(=O)OCc1ccc(NC(=O)[C@H](C)NC(=O)[C@@H](NC(=O)[C@H](CS(=O)(=O)O)NC(=O)CCOCCC(=O)NCCNc2ncc(-c3cc(C)cc(F)c3)c(N3CCC(N)CC3)c2-c2nc3ccc(Cl)cc3[nH]2)C(C)C)cc1C(=O)NCCN)C(C)C"
10.09

Return pEC50 for the following compound: "CC[C@H](C)[C@@H]([C@@H](CC(=O)N1CCC[C@H]1[C@H](OC)[C@@H](C)C(=O)N[C@H](C)[C@@H](O)c1ccccc1)OC)N(C)C(=O)[C@@H](NC(=O)[C@H](C(C)C)N(C)C(=O)OCc1ccc(NC(=O)[C@H](CCCNC(N)=O)NC(=O)[C@@H](NC(=O)CCOCCOCCOCCOCCNCCNc2ncc(-c3cc(C)cc(F)c3)c(N3CCC(N)CC3)c2-c2nc3ccc(Cl)cc3[nH]2)C(C)C)cc1)C(C)C"
9.25

Return pEC50 for the following compound: "CC[C@H](C)[C@@H]([C@@H](CC(=O)N1CCC[C@H]1[C@H](OC)[C@@H](C)C(=O)N[C@H](C)[C@@H](O)c1ccccc1)OC)N(C)C(=O)[C@@H](NC(=O)[C@H](C(C)C)N(C)C(=O)OCc1ccc(NC(=O)[C@H](C)NC(=O)[C@@H](NC(=O)CCOCCNCCNc2ncc(-c3cc(C)cc(F)c3)c(N3CCC(N)CC3)c2-c2nc3ccc(Cl)cc3[nH]2)C(C)C)c(O[C@@H]2O[C@H](C(=O)O)[C@@H](O)[C@H](O)[C@H]2O)c1)C(C)C"
9.54

Return pEC50 for the following compound: "Cc1cc(F)cc(-c2cnc(NCCCNC(=O)CCOCCOCCOCCOCCOCCNC(=O)CN3CCN4CCN5CCN(CC3)CC(=O)[O][In]([O]C(=O)C4)[O]C(=O)C5)c(-c3nc4cc(Cl)ccc4[nH]3)c2N2CCC(N)CC2)c1"
9.96

Return pEC50 for the following compound: CC[C@H](C)[C@@H]([C@@H](CC(=O)N1CCC[C@H]1[C@H](OC)[C@@H](C)C(=O)N[C@H](C)[C@@H](O)c1ccccc1)OC)N(C)C(=O)[C@@H](NC(=O)[C@H](C(C)C)N(C)C(=O)OCc1ccc(NC(=O)[C@H](CCCNC(N)=O)NC(=O)[C@@H](NC(=O)CCCCC(=O)NCCNc2ncc(-c3cc(C)cc(F)c3)c(N3CCC(N)CC3)c2-c2nc3ccc(Cl)cc3[nH]2)C(C)C)c(O[C@@H]2O[C@H](C(=O)O)[C@@H](O)[C@H](O)[C@H]2O)c1)C(C)C [Compound 63]
9.80

Return pEC50 for the following compound: "CC[C@H](C)[C@@H]([C@@H](CC(=O)N1CCC[C@H]1[C@H](OC)[C@@H](C)C(=O)N[C@H](C)[C@@H](O)c1ccccc1)OC)N(C)C(=O)[C@@H](NC(=O)[C@H](C(C)C)N(C)C(=O)OCc1ccc(O[C@@H]2O[C@H](C(=O)O)[C@@H](O)[C@H](O)[C@H]2O)c(NC(=O)[C@H](C)NC(=O)[C@@H](NC(=O)CCOCCC(=O)NCCNc2ncc(-c3cc(C)cc(F)c3)c(N3CCC(N)CC3)c2-c2nc3ccc(Cl)cc3[nH]2)C(C)C)c1)C(C)C"
10.07
